src = ChEMBL document CHEMBL1148297

# Measurement description: Ratio of IC50 of KA low-affinity receptor site to KA high-affinity receptor site
# binarize Ratio: threshold 0.2 inclusive, high side true, low side false

Please review the following examples before continuing.
*Q* Does the reported Ratio for O=C(O)c1ccn(-c2cc3c(cc2C(F)(F)F)nc(O)c2nc(C(=O)O)nn23)c1 fall at or above the 0.2 mark?
*A* true

*Q* Does the reported Ratio for O=C(O)c1nc2c(O)nc3cc([N+](=O)[O-])c(-n4cccc4)cc3n2n1 fall at or above the 0.2 mark?
*A* true

*Q* Does the reported Ratio for O=C(O)c1nc2c(O)nc3cc(C(F)(F)F)c(-n4cnnc4)cc3n2n1 fall at or above the 0.2 mark?
*A* false

*Q* Does the reported Ratio for O=Cc1ccn(-c2cc3c(cc2[N+](=O)[O-])nc(O)c2nc(C(=O)O)nn23)c1 fall at or above the 0.2 mark?
*A* false

Moving on to the next compound.
*Q* Does the reported Ratio for O=Cc1ccn(-c2cc3c(cc2C(F)(F)F)nc(O)c2nc(C(=O)O)nn23)c1 fall at or above the 0.2 mark?
*A* false

---

# Tested target: Glutamate receptor ionotropic, kainate
# Measurement description: Inhibition concentration towards high-affinity ionotropic glutamate receptor kainate of rat cortical membranes by using [3H]KA as radioligand
Reported endpoint: IC50 (µM)
One number for each entry, in µM.

Below: 5 compounds and their reported IC50.
*Q* Answer with reported IC50 of O=C(O)c1ccn(-c2cc3c(cc2C(F)(F)F)[nH]c(=O)c2nc(C(=O)O)nn23)c1
*A* 5.4

*Q* Answer with reported IC50 of O=C(O)c1nc2c(O)nc3cc(C(F)(F)F)c(-n4ccnc4)cc3n2n1
*A* 13

*Q* Answer with reported IC50 of CCOC(=O)c1nc2c(O)nc3cc(C(F)(F)F)c(-n4ccc(C(=O)O)c4)cc3n2n1
*A* 12.9

*Q* Answer with reported IC50 of CCOC(=O)c1nc2c(O)nc3cc(C(F)(F)F)c(-n4cnnc4)cc3n2n1
*A* 92

*Q* Answer with reported IC50 of O=C(O)c1nc2c(O)nc3cc(C(F)(F)F)c(-n4cccc4)cc3n2n1
*A* 18.1

Each compound below has a reported value. Please supply its IC50.
1. CCOC(=O)c1nc2c(O)nc3cc(C(F)(F)F)c(-n4ccnc4)cc3n2n1
2. O=C(O)c1nc2c(=O)[nH]c3cc([N+](=O)[O-])c(-n4cccc4)cc3n2n1
3. CCOC(=O)c1nc2c(O)nc3cc([N+](=O)[O-])c(-n4ccc(C=O)c4)cc3n2n1

*A*
71
5.1
44.4

*Q* Answer with reported IC50 of CCOC(=O)c1nc2c(=O)[nH]c3cc([N+](=O)[O-])c(NC(C)=O)cc3n2n1
*A* 41

---

# Tested target: Glutamate receptor ionotropic, AMPA (Rattus norvegicus, UniProt P19490+P19491+P19492+P19493)
pKi: −log10 of the molar value.
# binarize pKi: threshold 6 inclusive, high side 1 (yes), low side 0 (no)

Please review the following examples before continuing.
*Q* Does the reported pKi for CCOC(=O)c1nc2c(=O)[nH]c3cc(C(F)(F)F)c([N+](=O)[O-])cc3n2n1 fall at or above the 6 mark?
*A* 0 (no)

*Q* Does the reported pKi for CCOC(=O)c1nc2c(O)nc3cc(C(F)(F)F)c(-n4cccc4)cc3n2n1 fall at or above the 6 mark?
*A* 0 (no)

*Q* Does the reported pKi for O=C(O)c1ccn(-c2cc3c(cc2C(F)(F)F)[nH]c(=O)c2nc(C(=O)O)nn23)c1 fall at or above the 6 mark?
*A* 1 (yes)

*Q* Does the reported pKi for CCOC(=O)c1nc2c(O)nc3cc(C(F)(F)F)c(-n4ccc(C(=O)O)c4)cc3n2n1 fall at or above the 6 mark?
*A* 1 (yes)

Moving on to the next molecule.
*Q* Does the reported pKi for O=C(O)c1nc2c(=O)[nH]c3cc(C(F)(F)F)c(-n4cnnc4)cc3n2n1 fall at or above the 6 mark?
*A* 1 (yes)

---

# Tested target: Glutamate receptor ionotropic, NMDA 1 (Rattus norvegicus) (UniProt P35439)
# Measurement description: Percent inhibition of compound at 100 uM towards N-methyl-D-aspartate glutamate receptor 1 (high affinity) of rat cortical synaptic membranes by using [3H]-Gly as radioligand
# Format: cell membranes
# Measurement conditions: Membrane
Please go through the items and note down their inhibition.
Answers are plain numbers, in %.

Each compound below has a reported value. Please supply its inhibition.
1. CCOC(=O)c1nc2c(O)nc3cc(C(F)(F)F)c(-n4cnnc4)cc3n2n1
2. CCOC(=O)c1nc2c(O)nc3cc([N+](=O)[O-])c(-n4ccc(C(=O)O)c4)cc3n2n1
3. CCOC(=O)c1nc2c(O)nc3cc([N+](=O)[O-])c(-n4ccc(C=O)c4)cc3n2n1

*A*
42
16
28

Each compound below has a reported value. Please supply its inhibition.
1. CCOC(=O)c1nc2c(O)nc3cc(Cl)c(-n4cnnc4)cc3n2n1
2. O=C(O)c1ccn(-c2cc3c(cc2[N+](=O)[O-])nc(O)c2nc(C(=O)O)nn23)c1
3. O=Cc1ccn(-c2cc3c(cc2[N+](=O)[O-])nc(O)c2nc(C(=O)O)nn23)c1
4. CCOC(=O)c1nc2c(O)nc3cc(C(F)(F)F)c(-n4ccc(C(=O)O)c4)cc3n2n1

*A*
15
7
43
33

---

# Tested target: Glutamate receptor ionotropic, kainate
# Measurement description: Inhibition concentration towards high-affinity ionotropic glutamate receptor kainate of rat cortical membranes by using [3H]KA as radioligand
Please go through the items and note down their pIC50.
Numbers only, as −log10 of the molar value.

Below: 8 compounds and their reported pIC50.
*Q* Answer with reported pIC50 of CCOC(=O)c1nc2c(=O)[nH]c3cc([N+](=O)[O-])c(-n4cccc4)cc3n2n1
*A* 4.39

*Q* Answer with reported pIC50 of CC(=O)Nc1cc2c(cc1[N+](=O)[O-])nc(O)c1nc(C(=O)O)nn12
*A* 4.65

*Q* Answer with reported pIC50 of O=C(O)c1ccn(-c2cc3c(cc2[N+](=O)[O-])nc(O)c2nc(C(=O)O)nn23)c1
*A* 4.77

*Q* Answer with reported pIC50 of CCOC(=O)c1nc2c(O)nc3cc(C(F)(F)F)c(-n4ccc(C=O)c4)cc3n2n1
*A* 4.51

*Q* Answer with reported pIC50 of O=Cc1ccn(-c2cc3c(cc2C(F)(F)F)[nH]c(=O)c2nc(C(=O)O)nn23)c1
*A* 5.25

*Q* Answer with reported pIC50 of CCOC(=O)c1nc2c(O)nc3cc([N+](=O)[O-])c(N)cc3n2n1
*A* 4.16

*Q* Answer with reported pIC50 of Nc1cc2c(cc1C(F)(F)F)nc(O)c1nc(C(=O)O)nn12
*A* 4.62

*Q* Answer with reported pIC50 of CCOC(=O)c1nc2c(=O)[nH]c3cc(C(F)(F)F)c(N4C(=O)C=C(C=O)C4=O)cc3n2n1
*A* 4.38

Shift focus to the following entry.
*Q* Answer with reported pIC50 of O=C(O)c1nc2c(=O)[nH]c3cc(C(F)(F)F)c(-n4cnnc4)cc3n2n1
*A* 5.02

---

# Tested target: Glutamate receptor ionotropic, kainate
# Measurement description: Inhibition concentration towards high-affinity ionotropic glutamate receptor kainate of rat cortical membranes by using [3H]KA as radioligand
Please go through the items and note down their IC50.
Numbers only, in µM.

Below: 2 molecules and their reported IC50.
*Q* # return IC50 of Nc1cc2c(cc1[N+](=O)[O-])[nH]c(=O)c1nc(C(=O)O)nn12 (system: Glutamate receptor ionotropic, kainate)
*A* 20

*Q* # return IC50 of O=Cc1ccn(-c2cc3c(cc2[N+](=O)[O-])nc(O)c2nc(C(=O)O)nn23)c1 (system: Glutamate receptor ionotropic, kainate)
*A* 8.2

Each molecule below has a reported value. Please supply its IC50.
1. O=C(O)c1nc2c(=O)[nH]c3cc(C(F)(F)F)c([N+](=O)[O-])cc3n2n1
2. O=C(O)c1nc2c(=O)[nH]c3cc(Cl)c(-n4cnnc4)cc3n2n1

*A*
43
11.3

---

# Tested target: Glutamate receptor ionotropic, AMPA (Rattus norvegicus, UniProt P19490+P19491+P19492+P19493)
Strictly below 2 µM in Ki: Y. Otherwise: N.

*Q* Just wondering, is Ki of CC(=O)Nc1cc2c(cc1[N+](=O)[O-])nc(O)c1nc(C(=O)O)nn12 below 2 µM?
*A* Y

*Q* Just wondering, is Ki of O=C(O)c1nc2c(=O)[nH]c3cc(C(F)(F)F)c([N+](=O)[O-])cc3n2n1 below 2 µM?
*A* N

*Q* Just wondering, is Ki of CCOC(=O)c1nc2c(O)nc3cc([N+](=O)[O-])c(-n4ccc(C=O)c4)cc3n2n1 below 2 µM?
*A* Y

*Q* Just wondering, is Ki of CCOC(=O)c1nc2c(=O)[nH]c3cc(C(F)(F)F)c(N4C(=O)C=C(C=O)C4=O)cc3n2n1 below 2 µM?
*A* N

*Q* Just wondering, is Ki of O=Cc1ccn(-c2cc3c(cc2C(F)(F)F)[nH]c(=O)c2nc(C(=O)O)nn23)c1 below 2 µM?
*A* Y

Moving on to the next molecule.
*Q* Just wondering, is Ki of CCOC(=O)c1nc2c(=O)[nH]c3cc(C(F)(F)F)c(N)cc3n2n1 below 2 µM?
*A* N
